Exercise: for every item that follows, state its recorded Ki.
# study_target: Scytalone dehydratase (Magnaporthe oryzae (strain 70-15 / FGSC 8958) (Rice blast fungus)(Pyricularia oryzae), UniProt P56221)
# Sequence (P56221 whole entry): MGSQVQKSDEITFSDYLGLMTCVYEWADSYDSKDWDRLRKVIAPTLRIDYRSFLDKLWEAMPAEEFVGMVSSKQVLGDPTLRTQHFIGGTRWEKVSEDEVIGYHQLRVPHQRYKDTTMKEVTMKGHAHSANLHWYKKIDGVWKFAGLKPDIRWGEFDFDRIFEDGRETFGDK
Give bare numbers, in nM.

compound: C[C@@H](NC(=O)[C@]1(C)C[C@](C)(Cl)C1)c1ccc(Cl)cc1Cl
uom: nM
Ki: 0.012

compound: C[C@@H](NC(=O)[C@]1(C)C[C@](Cl)(CCl)C1)c1ccc(Br)cc1
uom: nM
Ki: 0.027

compound: C[C@H](COc1cc(F)ccc1Cl)NC(=O)[C@]1(C)C[C@](C)(Cl)C1
uom: nM
Ki: 0.057

compound: C[C@@H](NC(=O)[C@]1(C)C[C@](C)(Cl)C1)c1cccc2ccccc12
uom: nM
Ki: 3.2

compound: C[C@@H](NC(=O)C1CCC1)c1ccc(Br)cc1
uom: nM
Ki: 520

compound: C[C@@H](NC(=O)C1(Cl)CC(C)(Cl)C1)c1ccc(Br)cc1 (mixture of isomers)
uom: nM
Ki: 0.31

compound: C[C@H](COc1ccccc1F)NC(=O)[C@]1(C(F)(F)F)C[C@@](C)(Cl)C1
uom: nM
Ki: 0.35

compound: C[C@@H](NC(=O)C1(Cl)CC(Cl)(Cl)C1)c1ccc(Br)cc1
uom: nM
Ki: 0.45

compound: COc1cc(Br)ccc1C(C)NC(=O)[C@]1(C)C[C@](C)(Cl)C1 (mixture of isomers)
uom: nM
Ki: 0.03

Could you now look at the following compound, please?
Req: Please give measured Ki of the following entry: C[C@@H](NC(=O)[C@]1(C)C[C@](C)(O)C1)c1ccc(Br)cc1
Resp: 480

###

# study_target: Scytalone dehydratase (Magnaporthe oryzae (strain 70-15 / FGSC 8958) (Rice blast fungus)(Pyricularia oryzae), UniProt P56221)
Classify: rule met when Ki is strictly less than 70 pM; rule not met when Ki is not.

These recorded examples may help you get a feel for the data.
compound: CC[C@]1(O)C[C@@](C)(C(=O)N[C@H](C)c2ccc(Br)cc2)C1
label_class: rule not met
--
compound: CC[C@]1(C(=O)N[C@H](C)c2ccc(Br)cc2)C[C@@](C)(Cl)C1
label_class: rule met
--
compound: C[C@@H](NC(=O)C1(C)CC(F)(F)C1)c1ccc(Br)cc1
label_class: rule not met
--
compound: C#C[C@]1(O)C[C@@](C)(C(=O)N[C@H](C)c2ccc(Br)cc2)C1
label_class: rule not met
--
compound: C[C@@H](NC(=O)[C@]1(C)C[C@](C)(Cl)C1)c1ccc(Br)cc1
label_class: rule not met
--
compound: C[C@@H](NC(=O)C(C#N)C(C)(C)C)c1ccc(Cl)cc1Cl (stereo not given in full)
label_class: rule met

Req: Lab note: Ki threshold 70 pM. Does this compound come in strictly under it? C[C@H](COc1cc(F)ccc1F)NC(=O)[C@]1(C)C[C@](C)(Cl)C1
Resp: rule not met

Req: Lab note: Ki threshold 70 pM. Does this compound come in strictly under it? C[C@@H](NC(=O)[C@]1(C(F)(F)F)C[C@@](C)(Cl)C1)c1ccc(Cl)cc1Cl
Resp: rule met

Req: Lab note: Ki threshold 70 pM. Does this compound come in strictly under it? C[C@@H](NC(=O)[C@]1(C(F)(F)F)C[C@@](C)(Cl)C1)c1ccc(Cl)cc1
Resp: rule met

Req: Lab note: Ki threshold 70 pM. Does this compound come in strictly under it? C[C@@H](NC(=O)[C@]1(C(F)(F)F)C[C@@](C)(Cl)C1)c1ccc(Br)cc1
Resp: rule not met

###

# study_target: Scytalone dehydratase (Magnaporthe oryzae (strain 70-15 / FGSC 8958) (Rice blast fungus)(Pyricularia oryzae), UniProt P56221)
value_kind: pKi
Answers are plain numbers, as −log10 of the molar value.

Give one value of pKi per listed molecule.
1. CC(C)C(C)(C#N)NC(=O)[C@H](C)Oc1ccc(Cl)cc1Cl (stereo not given in full)
2. C[C@@H](NC(=O)[C@]1(C)C[C@@](Cl)(CCl)C1)c1ccc(Br)cc1
3. C[C@@H](NC(=O)[C@H]1C[C@@](C)(Cl)C1)c1ccc(Br)cc1
4. C[C@@H](NC(=O)[C@]1(C)C[C@](C)(Cl)C1)c1ccc2ccccc2c1
5. C[C@@H](NC(=O)[C@]1(C)C[C@@](C)(O)C1)c1ccc(Br)cc1

Resp:
1. 9.89
2. 10.80
3. 7.36
4. 10.80
5. 7.80
